# TARGET_OR_TEST_SYSTEM: human BTK kinase (hBTK) (Homo sapiens, UniProt Q06187)
# Construct: purchased Eurofins Pharma Discovery Services UK Limited
# Sequence (Q06187 whole entry): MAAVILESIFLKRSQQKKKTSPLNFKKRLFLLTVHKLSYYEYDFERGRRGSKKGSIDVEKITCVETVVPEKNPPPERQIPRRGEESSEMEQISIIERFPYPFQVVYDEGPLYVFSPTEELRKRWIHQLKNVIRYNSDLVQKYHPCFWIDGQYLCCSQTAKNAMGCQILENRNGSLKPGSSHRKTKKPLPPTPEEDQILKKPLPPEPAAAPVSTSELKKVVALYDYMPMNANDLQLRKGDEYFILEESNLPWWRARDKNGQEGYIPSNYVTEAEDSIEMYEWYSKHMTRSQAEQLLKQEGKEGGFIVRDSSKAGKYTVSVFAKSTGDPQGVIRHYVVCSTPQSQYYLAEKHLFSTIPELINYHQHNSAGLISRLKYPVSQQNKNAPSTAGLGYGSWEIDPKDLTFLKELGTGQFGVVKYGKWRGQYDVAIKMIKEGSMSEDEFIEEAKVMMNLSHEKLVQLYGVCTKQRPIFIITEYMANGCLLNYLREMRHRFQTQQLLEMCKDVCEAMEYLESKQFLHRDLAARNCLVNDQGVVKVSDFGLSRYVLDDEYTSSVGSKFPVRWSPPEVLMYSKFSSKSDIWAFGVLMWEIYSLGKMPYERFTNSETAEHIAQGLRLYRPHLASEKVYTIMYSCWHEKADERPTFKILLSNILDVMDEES
# ASSAY_NAME: Btk kinase inhibition assay, Method B (KinaseProfiler radiometric protein kinase assay, Eurofins)
# Assay type: biochemical
# CONDITION_SUMMARY: [γ-33P-ATP], 250 μM substrate, 40 minutes
# Procedure: In vitro potency of selected compound was defined against human BTK kinase (hBTK) using KinaseProfiler radiometric protein kinase assays performed at Eurofins Pharma Discovery Services UK Limited. hBTK kinase is diluted in buffer and all compounds were prepared to 50× final assay concentration in 100% DMSO. This working stock of the compound was added to the assay well as the first component in the reaction, followed by the remaining components as detailed in the assay protocol listed above. […]
MEASUREMENT_NAME: EC50

For reference, reported EC50 for Cc1ncc(COc2cc(F)cc(Oc3ccc(-n4cc([C@H]5C[C@@H](O)C5)c5ncnc(N)c54)cc3)c2)cn1 [Compound 11] stands at < 100 nM

All values here come from patent US20160289236A1.
